Data provenance is paper PMC3017428.

Molecular target: T1, Spn1(148–293)-R263D (S. cerevisiae, UniProt Q06505 148-293, R263D)
T1 sequence (looked up): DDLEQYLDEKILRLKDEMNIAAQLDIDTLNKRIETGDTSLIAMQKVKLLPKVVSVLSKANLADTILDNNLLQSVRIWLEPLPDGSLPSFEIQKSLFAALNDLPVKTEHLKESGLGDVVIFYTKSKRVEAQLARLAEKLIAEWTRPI
Assay: ITC
recorded-endpoint: pKd
Lab note: report pKd as minus log10 of the concentration in molar units, number only.

Entry SDKIDEMYDIFGDGHDYDWALEIENEELEN (domain or fragment, S. cerevisiae, UniProt P23615 239-268, looked up) [Spt6(239–268)] ; pKd = 4.52
